Where do the numbers come from? From patent US11555032B2.

Target: human FXR (NR1H4) (Homo sapiens, UniProt Q96RI1)
Construct: host or cells: CHO (Chinese hamster ovary) reporter cells
Sequence (Q96RI1 1-486): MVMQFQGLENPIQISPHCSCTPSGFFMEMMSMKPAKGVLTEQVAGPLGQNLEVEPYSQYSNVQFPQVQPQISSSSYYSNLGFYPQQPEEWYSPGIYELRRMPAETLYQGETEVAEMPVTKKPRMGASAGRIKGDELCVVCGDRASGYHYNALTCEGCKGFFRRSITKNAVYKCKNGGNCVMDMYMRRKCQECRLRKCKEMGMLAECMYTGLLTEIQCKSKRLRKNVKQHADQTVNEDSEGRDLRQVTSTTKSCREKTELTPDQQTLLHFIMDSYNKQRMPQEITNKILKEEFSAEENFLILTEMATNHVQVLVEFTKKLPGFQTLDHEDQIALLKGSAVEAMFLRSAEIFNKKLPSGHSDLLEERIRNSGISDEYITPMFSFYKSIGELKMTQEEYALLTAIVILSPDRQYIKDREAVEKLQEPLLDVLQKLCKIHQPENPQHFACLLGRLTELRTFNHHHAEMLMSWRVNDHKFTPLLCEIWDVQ
Assay: Human FXR (NRIH4) Assay, luciferase reporter
Format: cell-based
Details: CHO reporter cells expressing human NR1H4, luciferase, 22 hours incubation
pEC50: −log10 of the molar value.
observable: pEC50

compound	observable	result
O=C(O)c1ccc2nc(NC3C4CCC3CC(OCc3c(-c5ccccc5OC(F)(F)F)noc3C3CC3)C4)cnc2c1 (centres unmarked) [Example 29]	pEC50	> 7.60
O=C(O)c1ccc(S(=O)(=O)C2C3CCC2CC(OCc2c(-c4ccccc4OC(F)(F)F)noc2C2CC2)C3)cc1 (centres unmarked) [Example 11-15]	pEC50	6.30 to 7.60
N#Cc1cccc2ncc(NC3C4CCC3CC(OCc3c(-c5ccccc5OC(F)(F)F)noc3C3CC3)C4)nc12 (centres unmarked) [Example 13-2]	pEC50	< 6.30
O=S(=O)(NC1C2CCC1CC(OCc1c(-c3ccccc3OC(F)(F)F)noc1C1CC1)C2)c1ccccc1 (centres unmarked) [Example 9-10]	pEC50	6.30 to 7.60
O=C(O)c1ccc2c(c1)CN(C1C3CCC1CC(OCc1c(-c4c(Cl)cccc4Cl)noc1C1CC1)C3)C2 (centres unmarked) [Example 17]	pEC50	6.30 to 7.60
O=S(=O)(NC1C2CCC1CC(OCc1c(-c3ccccc3OC(F)(F)F)noc1C1CC1)C2)c1cccc2ccccc12 (centres unmarked) [Example 9-11]	pEC50	> 7.60
CC(C)Oc1cc(C(=O)O)cc2sc(NC3C4CCC3CC(OCc3c(-c5c(Cl)cccc5Cl)noc3C3CC3)C4)nc12 (centres unmarked) [Example 2]	pEC50	> 7.60
O=C(O)c1ccccc1S(=O)(=O)NC1C2CCC1CC(OCc1c(-c3ccccc3OC(F)(F)F)noc1C1CC1)C2 (centres unmarked) [Example 9-9]	pEC50	< 6.30
N#Cc1cc(C2CC2)c2nc(NC3C4CCC3CC(OCc3c(-c5ccccc5OC(F)(F)F)noc3C3CC3)C4)sc2c1 (centres unmarked) [Example 38]	pEC50	6.30 to 7.60
O=C(O)c1cc(F)cc2ncc(NC3C4CCC3CC(OCc3c(-c5ccccc5OC(F)(F)F)noc3C3CC3)C4)nc12 (centres unmarked) [Example 26]	pEC50	< 6.30
O=C(O)c1cccc(S(=O)(=O)C2C3CCC2CC(OCc2c(-c4ccccc4OC(F)(F)F)noc2C2CC2)C3)c1 (centres unmarked) [Example 11-8]	pEC50	< 6.30
Fc1cc(-c2nnn[nH]2)c2ncc(NC3C4CCC3CC(OCc3c(-c5ccccc5OC(F)(F)F)noc3C3CC3)C4)nc2c1 (centres unmarked) [Example 32]	pEC50	> 7.60
O=C(O)c1ccc2nc(SC3C4CCC3CC(OCc3c(-c5ccccc5OC(F)(F)F)noc3C3CC3)C4)sc2c1 (centres unmarked) [Example 11-10]	pEC50	> 7.60
O=C(O)c1cc(F)cc2nc(NC3C4CCC3CC(OCc3c(-c5ccccc5OC(F)(F)F)noc3C3CC3)C4)cnc12 (centres unmarked) [Example 39]	pEC50	> 7.60
